Assay: Log P by shake flask method
Assay type: physicochemical
Conditions: octanol / PBS pH = 7.4, shake flask
Recorded Endpoint: logP
In your answer, state the number alone without any accompanying words.

Examples from the recorded data:
O=C(CCc1ccccc1)Nc1ccc(OCCN2CCCC2)cc1 [Compound 12g] ... 2.26
CCCCCC(=O)Nc1cccc(OCCN2CCCCC2)c1 [Compound 23f] ... 1.55
C/C=C/C=C/C(=O)Nc1ccccc1OCCN(C)C [Compound 16d] ... 0.63

What does the data say about its logP? Entry: O=C(CCc1ccccc1)Nc1cccc(OCCN2CCCCC2)c1 [Compound 11f]
3.22

What does the data say about its logP? Entry: C/C=C/C=C/C(=O)Nc1ccccc1OCCN(CC)CC [Compound 16e]
2.18

What does the data say about its logP? Entry: CCCCCC(=O)Nc1ccc(OCCN(C)C)cc1 [Compound 24d]
0.72

---

Target: UniProt P37136
Experiment: biochemical
Details: IC50 (BChE)/IC50 (AChE)
Decide using Selectivity for AChE alone. Strictly below 1: yes (1). Equal to or above 1: no (0).

See these solved cases before continuing.
CCN(CC)CCOc1cccc(NC(=O)C=Cc2ccccc2)c1 [Compound 5e] ... yes (1)
O=C(CCc1ccccc1)Nc1ccccc1OCCN1CCCC1 [Compound 10g] ... yes (1)
CN(C)CCOc1ccccc1NC(=O)CCc1ccccc1 [Compound 10d] ... yes (1)
CCCCCC(=O)Nc1cccc(OCCN(CC)CC)c1 [Compound 23e] ... yes (1)
O=C(C=Cc1ccccc1)Nc1ccccc1OCCN1CCCC1 [Compound 4g] ... yes (1)

Is Selectivity for AChE of CCN(CC)CCOc1ccc(NC(=O)C=Cc2ccccc2)cc1 [Compound 6e] strictly below 1?
no (0)

Is Selectivity for AChE of O=C(C=Cc1ccccc1)Nc1cccc(OCCN2CCCC2)c1 [Compound 5g] strictly below 1?
no (0)

---

Test: Log P by shake flask method
Assay type: physicochemical
Conditions: octanol / PBS pH = 7.4, shake flask
Decide using logP alone. Strictly below 1: Satisfied. Equal to or above 1: Not satisfied.

See these solved cases before continuing.
CCN(CC)CCOc1cccc(NC(=O)CCc2ccccc2)c1 [Compound 11e] ... Not satisfied
C/C=C/C=C/C(=O)Nc1ccccc1OCCN1CCCCC1 [Compound 16f] ... Satisfied
C/C=C/C=C/C(=O)Nc1ccccc1OCCN1CCCC1 [Compound 16g] ... Satisfied

Is logP of CCCCCC(=O)Nc1ccc(OCCN2CCCCC2)cc1 [Compound 24f] strictly below 1?
Not satisfied

Is logP of C/C=C/C=C/C(=O)Nc1cccc(OCCN2CCCC2)c1 [Compound 17g] strictly below 1?
Not satisfied

Is logP of C/C=C/C=C/C(=O)Nc1ccc(OCCN2CCCCC2)cc1 [Compound 18f] strictly below 1?
Not satisfied

Is logP of O=C(CCc1ccccc1)Nc1ccccc1OCCN1CCCC1 [Compound 10g] strictly below 1?
Not satisfied

Is logP of C/C=C/C=C/C(=O)Nc1cccc(OCCN(CC)CC)c1 [Compound 17e] strictly below 1?
Not satisfied

Is logP of C/C=C/C=C/C(=O)Nc1ccc(OCCN(C)C)cc1 [Compound 18d] strictly below 1?
Not satisfied

Is logP of `CN(C)CCOc1cccc(NC(=O)C=Cc2ccccc2)c1` strictly below 1?
Satisfied

---

pKa: recorded values
Test: pKa by pH-titration method
Assay type: physicochemical
Details: read-out: pKa
In your answer, state the number alone without any accompanying words.

O=C(C=Cc1ccccc1)Nc1ccc(OCCN2CCCC2)cc1 ... 6.74

What does the data say about its pKa? Entry: `CCN(CC)CCOc1ccccc1NC(=O)C=Cc1ccccc1`
7.28

What does the data say about its pKa? Entry: CCCCCC(=O)Nc1ccc(OCCN2CCCC2)cc1 [Compound 24g]
6.92

What does the data say about its pKa? Entry: `CCN(CC)CCOc1cccc(NC(=O)C=Cc2ccccc2)c1`
7.16

What does the data say about its pKa? Entry: O=C(CCc1ccccc1)Nc1ccc(OCCN2CCCC2)cc1 [Compound 12g]
6.8

What does the data say about its pKa? Entry: CCCCCC(=O)Nc1ccc(OCCN(C)C)cc1 [Compound 24d]
7.16

What does the data say about its pKa? Entry: C/C=C/C=C/C(=O)Nc1cccc(OCCN2CCCC2)c1 [Compound 17g]
7.06

What does the data say about its pKa? Entry: CCCCCC(=O)Nc1cccc(OCCN2CCCC2)c1 [Compound 23g]
7.69

What does the data say about its pKa? Entry: `O=C(C=Cc1ccccc1)Nc1cccc(OCCN2CCCCC2)c1`
6.99

What does the data say about its pKa? Entry: C/C=C/C=C/C(=O)Nc1cccc(OCCN2CCCCC2)c1 [Compound 17f]
7.17

What does the data say about its pKa? Entry: `O=C(C=Cc1ccccc1)Nc1ccccc1OCCN1CCCCC1`
6.85

What does the data say about its pKa? Entry: `O=C(C=Cc1ccccc1)Nc1ccccc1OCCN1CCCC1`
7.33

What does the data say about its pKa? Entry: O=C(CCc1ccccc1)Nc1cccc(OCCN2CCCC2)c1 [Compound 11g]
6.45

What does the data say about its pKa? Entry: CCN(C)C(=O)Oc1cccc([C@H](C)N(C)C)c1 [Rivastigmine, reference compound]
5.93

What does the data say about its pKa? Entry: CN(C)CCOc1ccc(NC(=O)CCc2ccccc2)cc1 [Compound 12d]
7.26

---

Experiment: pKa by pH-titration method
Format: physicochemical
Settings: read-out: pKa
Recorded Endpoint: pKa

What does the data say about its pKa? Entry: C/C=C/C=C/C(=O)Nc1ccccc1OCCN1CCCC1 [Compound 16g]
7.32

What does the data say about its pKa? Entry: CCCCCC(=O)Nc1cccc(OCCN(C)C)c1 [Compound 23d]
6.52

What does the data say about its pKa? Entry: C/C=C/C=C/C(=O)Nc1ccc(OCCN(CC)CC)cc1 [Compound 18e]
7.16

---

Target: AChE (Rattus norvegicus)
Sequence (P37136 32-614): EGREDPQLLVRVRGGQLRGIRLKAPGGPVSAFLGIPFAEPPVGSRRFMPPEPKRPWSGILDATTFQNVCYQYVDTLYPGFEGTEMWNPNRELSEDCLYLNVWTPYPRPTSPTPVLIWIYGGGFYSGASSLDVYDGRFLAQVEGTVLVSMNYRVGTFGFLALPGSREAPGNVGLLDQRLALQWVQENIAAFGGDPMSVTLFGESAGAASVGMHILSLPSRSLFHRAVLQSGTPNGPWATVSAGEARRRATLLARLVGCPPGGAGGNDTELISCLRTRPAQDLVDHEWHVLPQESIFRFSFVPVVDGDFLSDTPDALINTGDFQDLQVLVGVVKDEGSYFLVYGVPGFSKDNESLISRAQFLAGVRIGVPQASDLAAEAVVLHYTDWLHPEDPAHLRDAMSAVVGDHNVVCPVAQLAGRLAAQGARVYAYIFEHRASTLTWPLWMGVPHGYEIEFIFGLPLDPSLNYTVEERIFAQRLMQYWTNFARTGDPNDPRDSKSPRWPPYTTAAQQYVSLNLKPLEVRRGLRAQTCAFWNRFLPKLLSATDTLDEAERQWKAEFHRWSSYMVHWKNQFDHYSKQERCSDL
Test: biochemical
Conditions: IC50 (BChE)/IC50 (AChE)
Recorded Endpoint: Selectivity for AChE
In your answer, state the number alone without any accompanying words.

CCCCCC(=O)Nc1ccccc1OCCN1CCCCC1 [Compound 22f] ... 0.03
O=C(CCc1ccccc1)Nc1ccccc1OCCN1CCCCC1 [Compound 10f] ... 0.002

What does the data say about its Selectivity for AChE? Entry: CN(C)CCOc1ccc(NC(=O)CCc2ccccc2)cc1 [Compound 12d]
2.82

What does the data say about its Selectivity for AChE? Entry: C/C=C/C=C/C(=O)Nc1ccccc1OCCN(C)C [Compound 16d]
1.11

What does the data say about its Selectivity for AChE? Entry: CCCCCC(=O)Nc1ccc(OCCN(C)C)cc1 [Compound 24d]
0.81

What does the data say about its Selectivity for AChE? Entry: C/C=C/C=C/C(=O)Nc1cccc(OCCN(CC)CC)c1 [Compound 17e]
0.81

What does the data say about its Selectivity for AChE? Entry: CCCCCC(=O)Nc1ccc(OCCN2CCCCC2)cc1 [Compound 24f]
0.54

---

Selectivity for AChE: recorded values
Molecular target: AChE (Rattus norvegicus)
Experiment: biochemical
Conditions: IC50 (BChE)/IC50 (AChE)
In your answer, state the number alone without any accompanying words.

O=C(CCc1ccccc1)Nc1cccc(OCCN2CCCCC2)c1 [Compound 11f] ... 0.93
CCN(CC)CCOc1ccc(NC(=O)CCc2ccccc2)cc1 [Compound 12e] ... 2.50
C/C=C/C=C/C(=O)Nc1cccc(OCCN2CCCCC2)c1 [Compound 17f] ... 0.76
CCN(CC)CCOc1cccc(NC(=O)CCc2ccccc2)c1 [Compound 11e] ... 0.08
C/C=C/C=C/C(=O)Nc1ccccc1OCCN1CCCCC1 [Compound 16f] ... 0.16

What does the data say about its Selectivity for AChE? Entry: C/C=C/C=C/C(=O)Nc1ccccc1OCCN1CCCC1 [Compound 16g]
0.08

What does the data say about its Selectivity for AChE? Entry: CN(C)CCOc1cccc(NC(=O)CCc2ccccc2)c1 [Compound 11d]
0.26

What does the data say about its Selectivity for AChE? Entry: C/C=C/C=C/C(=O)Nc1cccc(OCCN(C)C)c1 [Compound 17d]
0.96

What does the data say about its Selectivity for AChE? Entry: C/C=C/C=C/C(=O)Nc1ccc(OCCN(CC)CC)cc1 [Compound 18e]
0.50

What does the data say about its Selectivity for AChE? Entry: CCCCCC(=O)Nc1cccc(OCCN2CCCCC2)c1 [Compound 23f]
0.002

---

Target: BChE (Rattus norvegicus)
Sequence (Q9JKC1 24-597): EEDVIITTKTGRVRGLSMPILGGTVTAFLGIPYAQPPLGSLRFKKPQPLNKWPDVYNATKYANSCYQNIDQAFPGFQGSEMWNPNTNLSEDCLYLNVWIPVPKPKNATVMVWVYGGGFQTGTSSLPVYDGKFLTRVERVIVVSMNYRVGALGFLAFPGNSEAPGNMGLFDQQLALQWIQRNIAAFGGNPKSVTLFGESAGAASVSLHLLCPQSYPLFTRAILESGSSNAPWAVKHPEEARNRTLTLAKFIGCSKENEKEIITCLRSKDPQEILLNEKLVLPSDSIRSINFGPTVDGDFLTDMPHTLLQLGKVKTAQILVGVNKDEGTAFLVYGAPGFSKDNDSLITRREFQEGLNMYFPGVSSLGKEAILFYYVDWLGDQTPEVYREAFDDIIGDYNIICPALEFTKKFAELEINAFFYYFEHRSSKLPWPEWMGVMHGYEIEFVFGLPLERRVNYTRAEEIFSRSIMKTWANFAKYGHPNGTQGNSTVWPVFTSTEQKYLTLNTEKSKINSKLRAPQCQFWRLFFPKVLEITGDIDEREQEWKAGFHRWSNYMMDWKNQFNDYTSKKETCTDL
Test: biochemical
Set-up: species or system Sprague–Dawley rat
Conditions: rat serum BChE, Mean ± SD, triplicate
pIC50: −log10 of the molar value.
Short version: pIC50 at least 4 is 1.0, less is 0.0.

See these solved cases before continuing.
CCCCCC(=O)Nc1cccc(OCCN2CCCC2)c1 [Compound 23g] ... 1.0
CN(C)CCOc1cccc(NC(=O)C=Cc2ccccc2)c1 [Compound 5d] ... 1.0
O=C(C=Cc1ccccc1)Nc1cccc(OCCN2CCCCC2)c1 [Compound 5f] ... 1.0
CCN(CC)CCOc1ccc(NC(=O)C=Cc2ccccc2)cc1 [Compound 6e] ... 1.0
CCCCCC(=O)Nc1ccc(OCCN(C)C)cc1 [Compound 24d] ... 1.0

Quick check, pIC50 >= 4? C/C=C/C=C/C(=O)Nc1ccccc1OCCN(C)C [Compound 16d]
1.0

Quick check, pIC50 >= 4? O=C(CCc1ccccc1)Nc1cccc(OCCN2CCCCC2)c1 [Compound 11f]
1.0

Quick check, pIC50 >= 4? CCCCCC(=O)Nc1ccc(OCCN2CCCC2)cc1 [Compound 24g]
1.0

Quick check, pIC50 >= 4? CCCCCC(=O)Nc1cccc(OCCN2CCCCC2)c1 [Compound 23f]
1.0

Quick check, pIC50 >= 4? CN(C)CCOc1cccc(NC(=O)CCc2ccccc2)c1 [Compound 11d]
1.0

Quick check, pIC50 >= 4? CCN(CC)CCOc1ccc(NC(=O)CCc2ccccc2)cc1 [Compound 12e]
0.0

Quick check, pIC50 >= 4? CCN(CC)CCOc1cccc(NC(=O)C=Cc2ccccc2)c1 [Compound 5e]
1.0

Source of measurements: paper PMC6010128
